experiment: inhibitors of insulin promoter-driven GFP, primary screen, imaging, TRM-6 cells, eGFP reporter, cell count (AID 1273); conditions: at 2 µM, reporter expression induced with tamoxifen; stronger effect = higher value
Out of some 130,000 compounds screened, about 1,200 (0.92%) were called active. Shown is part of a subset that was picked to be rich in actives.
Quick list: inhibition per entry.
# value in %; strip the unit string

May I ask what inhibition has been recorded for CCOC(=O)c1c(C)[nH]c(C2=NNC(=NC(C)COC)SC2)c1C (configuration not stated) ?
31.2

====

test: inhibitors of insulin promoter-driven GFP, primary screen, imaging, TRM-6 cells, eGFP reporter, cell count (AID 1273); details: at 2 µM, reporter expression induced with tamoxifen
The campaign covered roughly 130,000 compounds. About 1,200 (0.92%) were called active.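 The calls were made as follows: active = inhibition above the mean plus 3 SD, with well images judged a real hit on visual review (cut at about 60% in these data, passing the limit was not always enough); inconclusive = inhibition over the cutoff but images rejected on review; inactive = inhibition not above the cutoff.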 Only a selection was taken, and actives are over-represented in it overall.
Respond only with the outcome that fits, drawn from 1 (yes) for active, 0 (no) for inactive

Take a look at these entries with their results.
CCCC(NC(=O)c1ccccc1)c1nc2ccccc2n1Cc1ccc(C(=O)OC)o1 (stereo unspecified); 0 (no)
CC(C(=O)NC1CCCC1)N(c1ccc(Oc2ccccc2)cc1)S(C)(=O)=O (stereo unspecified); 0 (no)
COC(=O)c1ccc(Cc2ccccc2)o1; 1 (yes)
COC(=O)c1ccc(CN(c2ccccc2OC)S(=O)(=O)c2cccs2)o1; 0 (no)
Cc1nc(NC(=O)CN(C)S(=O)(=O)c2ccc(Cl)cc2)sc1C; 1 (yes)

Consider the additional compound presented here.
# fetch the recorded call for O=C(COC(=O)c1ccc(O)cc1)Nc1nccs1 here
0 (no)

====

assay: inhibitors of insulin promoter-driven GFP, primary screen, imaging, TRM-6 cells, eGFP reporter, cell count (AID 1273); conditions: at 2 µM, reporter expression induced with tamoxifen; measured here: cell count, toxicity;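 on normalized cell count: cells exposed to compound for 48 h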
About 1,200 (0.92%) of roughly 130,000 compounds were called active. Only a selection was taken, and actives are over-represented in it overall.
Quick list: normalized cell count per entry.
# value in %; strip the unit string

The following molecules have reported results that may help.
COc1ccc(N2C(=O)/C(=C\c3ccco3)N=C2SCC(N)=O)cc1Cl; 75.5
Cc1cccc(NC(=O)COc2ccccc2C)n1; 56.6
CC(C)C(=O)NCc1cc(-c2ccc(Cl)cc2)no1; 86.2
O=c1[nH]c(CN2CCOCC2)nc2scc(-c3ccccc3)c12; 148
COc1ccc(-c2cn3cccnc3n2)cc1; 80.6

May I ask what normalized cell count has been recorded for OC(c1nnc(-c2ccccc2)o1)c1cccs1 (configuration not stated) ?
106

May I ask what normalized cell count has been recorded for COCCNC(=O)COc1ccccc1C ?
112

May I ask what normalized cell count has been recorded for Brc1ccc(-c2nnc(-c3ccccc3)o2)o1 ?
142

May I ask what normalized cell count has been recorded for O=C(C1CCCO1)N1CCN(C(=S)NC2CC2)CC1 (configuration not stated) ?
80.6

May I ask what normalized cell count has been recorded for COc1ccc([N+](=O)[O-])cc1NC(=O)COC(=O)/C=C/c1ccco1 ?
128

May I ask what normalized cell count has been recorded for CCCCNC(=O)N1CCN(S(C)(=O)=O)CC1 ?
86.1

May I ask what normalized cell count has been recorded for Cc1ccc(S(=O)(=O)NC(=O)COc2ccccc2C)cc1 ?
150

====

Quick list: normalized cell count per entry.
experiment: inhibitors of insulin promoter-driven GFP, primary screen, imaging, TRM-6 cells, eGFP reporter, cell count (AID 1273); settings: at 2 µM, reporter expression induced with tamoxifen; measured here: cell count, toxicity;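 on normalized cell count: cells exposed to compound for 48 h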
Screen size: about 130,000 compounds; about 1,200 (0.92%) were called active. The sample holds actives, similar compounds and a random draw of the others, so the mix is not that of the screen.
# value in %; strip the unit string

Cc1ccc(-n2cc(CN(C)Cc3nccn3C)c(-c3cccc(C)c3)n2)cc1; 124
COc1ccc(OC)c(Cc2nnc(CCC(=O)NC3CCCC3)o2)c1; 95.3
Cc1nc2ccccc2cc1O; 57.9

May I ask what normalized cell count has been recorded for O=C(Nc1ccc(-c2ccc3nncn3n2)cc1)C1CCCCC1 ?
193

May I ask what normalized cell count has been recorded for COc1cc(C(=O)Nc2nccs2)cc(OC)c1OC ?
97.1

May I ask what normalized cell count has been recorded for COC(=O)C(NS(=O)(=O)c1ccc(F)cc1)c1ccccc1 (stereo not given) ?
140

May I ask what normalized cell count has been recorded for COC(=O)c1ccc(Cc2ccccc2)o1 ?
83.1

====

experiment: inhibitors of insulin promoter-driven GFP, primary screen, imaging, TRM-6 cells, eGFP reporter, cell count (AID 1273); settings: at 2 µM, reporter expression induced with tamoxifen; stronger effect = higher value
In all, about 130,000 compounds went through this assay and about 1,200 (0.92%) were called active. The list comes from a sample in which actives are over-represented; it also holds close analogues and randomly drawn compounds.
Quick list: inhibition per entry.
# value in %; strip the unit string

The following compounds have reported results that may help.
Cc1ccc(OC(=O)c2cc3ccccc3o2)cc1; -79.3
Cc1cc([N+](=O)[O-])ccc1NC(=O)c1ccc(NC(=O)C(C)C)cc1; 30
Cc1ccccc1NC(=O)c1nn(-c2ccc(F)c(F)c2)ccc1=O; 25
COc1ccc(-c2cn3cccnc3n2)cc1; 23.5
Cc1ccc(S(=O)(=O)c2ccc(Oc3ccccc3)cc2)cc1; -87.1

Here is another compound to look at.
May I ask what inhibition has been recorded for COC(=O)CC1=NN(c2ccccc2)C(=O)C1 ?
0

====

assay: inhibitors of insulin promoter-driven GFP, primary screen, imaging, TRM-6 cells, eGFP reporter, cell count (AID 1273); settings: at 2 µM, reporter expression induced with tamoxifen; measured here: cell count, toxicity;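 on normalized cell count: cells exposed to compound for 48 h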
Hit rate of the full screen: of about 130,000 compounds, about 1,200 (0.92%) were called active. What follows is part of a selection rich in actives, with near analogues and random picks from the rest.
OBSERVABLE: normalized cell count (%)
# value in %; strip the unit string

The following molecules have reported results that may help.
COc1cccc(N2CCN(C3CC(=O)N(c4ccc(Cl)cc4)C3=O)CC2)c1 (stereo unspecified); 118
C/C(=C\C(=O)c1cccnc1)Nc1ccc(C)c(C)c1; 74
CCc1ccc(NC(=O)c2ccc(Cn3cc([N+](=O)[O-])cn3)cc2)cc1; 63.8
N/C(=N\OC(=O)Cc1ccccc1[N+](=O)[O-])c1ccc(Br)cc1; 129

May I ask what normalized cell count has been recorded for Cc1c(Br)ccc(NC(=O)COc2ccccc2C(N)=O)c1C ?
50.7

May I ask what normalized cell count has been recorded for COc1cccc(NC(=O)c2ccc(Cn3cc([N+](=O)[O-])cn3)o2)c1 ?
79.5

May I ask what normalized cell count has been recorded for CN(C)/C=C(/C(=O)c1ccccc1)S(=O)(=O)c1ccc(Cl)cc1 ?
70.5

May I ask what normalized cell count has been recorded for CCc1ccc(/C=C2\SC(N3CCOCC3)=NC2=O)cc1 ?
199

May I ask what normalized cell count has been recorded for COCn1c(COc2ccccc2)nc2ccccc21 ?
132

May I ask what normalized cell count has been recorded for Cc1cccc(N2CC(C)Cn3c2nc2c3c(=O)n(CC(=O)OCc3ccccc3)c(=O)n2C)c1 (stereo unspecified) ?
63.7

====

experiment: inhibitors of insulin promoter-driven GFP, primary screen, imaging, TRM-6 cells, eGFP reporter, cell count (AID 1273); details: at 2 µM, reporter expression induced with tamoxifen; measured here: cell count, toxicity;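 on normalized cell count: cells exposed to compound for 48 h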
Out of some 130,000 compounds screened, about 1,200 (0.92%) were called active. This is one part of a sample in which actives are shown more often than they occur.
Tick label 1 if normalized cell count is 90% or greater. Tick label 0 if normalized cell count is less than 90%.

Take a look at these entries with their results.
NC(=O)c1ccc(CN2CCC(Cc3ccccc3)CC2)cc1; label 0
N/C(=N\OC(=O)N1c2ccccc2Sc2ccccc21)c1ccc(Br)cc1; label 1
CCC(=O)c1cc2c(cc1NC(=O)c1cccs1)OCCO2; label 1

Check the entry Cc1cnc(C(=O)OCC(=O)Nc2ccc(Cl)cc2Cl)cn1 : does normalized cell count equal or exceed 90%?
label 0

Check the entry Cc1ccc(S(=O)(=O)N(C)C)cc1NC(=O)COC(=O)C1COc2ccccc2O1 (stereo unspecified) : does normalized cell count equal or exceed 90%?
label 0

====

Quick list: normalized cell count per entry.
test: inhibitors of insulin promoter-driven GFP, primary screen, imaging, TRM-6 cells (human fetal islet line), eGFP reporter, cell count (AID 1273); conditions: at 2 µM, reporter expression induced with tamoxifen; measured here: cell count, toxicity
Screen size: about 130,000 compounds; about 1,200 (0.92%) were called active. What follows is part of a selection rich in actives, with near analogues and random picks from the rest.
# value in %; strip the unit string

The following compounds have reported results that may help.
CCSC1=NCCN1S(=O)(=O)c1ccc(F)cc1; 130
O=C(CSc1nnc(-c2cccs2)n1Cc1ccco1)c1ccc2c(c1)OCO2; 96.9
Cc1ccc(NC(=O)CSc2nnc(-c3cnccn3)n2Cc2ccco2)cc1C; 100

May I ask what normalized cell count has been recorded for Cc1cc2nnc(SCC(=O)N3CCN(c4ccccc4)CC3)n2c(N)n1 ?
82.1

May I ask what normalized cell count has been recorded for COc1cccc(NC(=O)C2CCCN2C(=O)OCc2ccccc2)c1 (stereo unspecified) ?
106

May I ask what normalized cell count has been recorded for COC(=O)C1=C(C)N(C)C(=S)NC1c1cc(OC)ccc1OC (stereo unspecified) ?
118

May I ask what normalized cell count has been recorded for CS(=O)(=O)N1CCc2cc(C(=O)Nc3ccccc3)ccc21 ?
103

May I ask what normalized cell count has been recorded for CCCCCN1CC(O)=C(c2nc(-c3ccc(Cl)cc3)cs2)C1=N ?
67.1

May I ask what normalized cell count has been recorded for Cc1ccc(CC(=O)Nc2cccc(C#N)c2)cc1 ?
153

May I ask what normalized cell count has been recorded for Cc1ccc(Cl)c(NC(=O)CN2CCN(C=O)CC2)c1 ?
117

May I ask what normalized cell count has been recorded for Cc1cc([N+](=O)[O-])ccc1NC(=O)c1ccc(NC(=O)C(C)C)cc1 ?
120
